System: HepG2
test-protocol: cell viability relative to DMSO; higher = less toxic
test-parameters: 72 h; 1 nM
assay-metric: cell viability (%)
Enter your answer as a number in %; do not include the unit.

State its cell viability for this molecule: C#Cc1cccc(Nc2ncnc3cc(OC)c(OCCCCCCC(=O)NO)cc23)c1
96.3

State its cell viability for this molecule: Cc1coc2c1C(=O)C(=O)c1c-2ccc2c(C)cccc12
91

State its cell viability for this molecule: C[C@H]1O[C@@H](O[C@H]2CC[C@@]3(C)[C@H](CC[C@@H]4[C@@H]3C[C@@H](O)[C@]3(C)[C@@H](C5=CC(=O)OC5)CC[C@]43O)C2)C[C@H](O)[C@@H]1O[C@H]1C[C@H](O)[C@H](O[C@H]2C[C@H](O)[C@H](O[C@@H]3O[C@H](CO)[C@@H](O)[C@H](O)[C@H]3O)[C@@H](C)O2)[C@@H](C)O1 [deslanoside]
89.4

State its cell viability for this molecule: CC(C)(C)c1cc(/C=C(\C#N)C(N)=S)cc(C(C)(C)C)c1O
93.6

State its cell viability for this molecule: COc1ccc(C2CNC(=O)C2)cc1OC1CCCC1 (stereo not given)
102

State its cell viability for this molecule: CCC(=O)OCC(=O)[C@@]1(OC(=O)CC)[C@H](C)C[C@H]2[C@H]3[C@H]([C@@H](O)C[C@@]21C)[C@@]1(C)C=CC(=O)C=C1C[C@H]3Cl [alclometasone-dipropionate]
103

State its cell viability for this molecule: Nc1ccc(/N=N/c2ccccc2)c(N)n1
91.1

State its cell viability for this molecule: CC[N+](CC)(CCCNC1=CC(=O)C(NCCC[N+](CC)(CC)Cc2ccccc2)=CC1=O)Cc1ccccc1 [benzoquinonium-dibromide]
96.3

State its cell viability for this molecule: C=C[C@H]1CN2CC[C@H]1CC2C(OC(=O)OCC)c1ccnc2ccc(OC)cc12 (stereo in doubt) [quinine-ethyl-carbonate]
93.2

State its cell viability for this molecule: Fc1ccc(-c2c3cccc(C(F)(F)F)c3nn2Cc2ccc(F)cc2Cl)cc1
95.5

State its cell viability for this molecule: O=C(CN1C2=NCCN2c2ccccc21)c1ccc(-c2ccccc2)cc1
98.7

State its cell viability for this molecule: CN(NC(=O)CC(=O)NN(C)C(=S)c1ccccc1)C(=S)c1ccccc1
93.4

State its cell viability for this molecule: CN(C)CCOc1ccc(/C(=C(/CCCl)c2ccccc2)c2ccccc2)cc1
105

State its cell viability for this molecule: O=C(O)CCc1cc(C(=O)c2ccc(OC3CCCC3)cc2O)ccc1OCc1ccc2c(O)noc2c1
97.9

State its cell viability for this molecule: CC(C)(C)c1ccc(/C=C/C(=O)Nc2ccc3c(c2)OCCO3)cc1
98.3
